The values you see were collected from patent US20080255236A1.

protocol_description: Bioavailability of 23CPPA in male rats (oral vs intravenous)
Type: in vivo
condition_description: rat, single dose oral 30 mg/kg vs intravenous 3.0 mg/kg, plasma LC-MS-MS
quantity_name: bioavailability (%)
Number in %, nothing else.

For this compound ( O=C(O)Cc1ccccc1Nc1cccc(Cl)c1 ), measured bioavailability is 85

* * *

protocol_description: Brain and plasma levels of 23CPPA following oral administration in rats (HPLC/MS/MS)
Type: in vivo
condition_description: brain, rat, gavage 60 mg/kg sodium salt, 1 hour after dose, read-out: Brain concentration
quantity_name: concentration at 1 h

In plain terms, O=C(O)Cc1ccccc1Nc1cccc(Cl)c1 has a documented concentration at 1 h of 148 µM

* * *

protocol_description: Brain and plasma levels of 23CPPA following oral administration in rats (HPLC/MS/MS)
Format: in vivo
condition_description: brain, rat, gavage 15 mg/kg sodium salt, 4 hours after dose, read-out: Brain concentration
quantity_name: concentration at 4 h
Number first, unit second.

O=C(O)Cc1ccccc1Nc1cccc(Cl)c1 yielded concentration at 4 h of 12.4 µM

* * *

protocol_description: Plasma levels of 23CPPA following oral administration in rats
Format: in vivo, rat
condition_description: po; rat plasma, gavage 25 mg/kg sodium salt; read-out: maximal concentration (Cmax)
quantity_name: Cmax (ng/mL)
State just the number; it will be interpreted in ng/mL.

Kindly note the recorded Cmax for O=C(O)Cc1ccccc1Nc1cccc(Cl)c1 , which is 9500

* * *

protocol_description: Plasma levels of 23CPPA after oral administration to humans
Format: in vivo, human
condition_description: plasma; human, single oral dose 500 mg (6.0 mg/kg body wt); read-out: AUC0-24
quantity_name: AUC(0-t) (ng·h/mL)
Only the number, expressed in ng·h/mL, is required.

# compound O=C(O)Cc1ccccc1Nc1cccc(Cl)c1 ; its AUC(0-t) = 54000

* * *

protocol_description: Brain and plasma levels of 23CPPA following oral administration in rats (HPLC/MS/MS)
Format: in vivo
condition_description: blood, rat, gavage 15 mg/kg sodium salt, 1 hour after dose, read-out: Blood concentration
quantity_name: concentration at 1 h (µM)
# value in µM; strip the unit string

Note to self: concentration at 1 h recorded for O=C(O)Cc1ccccc1Nc1cccc(Cl)c1 [23CPPA] was 27

* * *

protocol_description: Plasma levels of 23CPPA after oral administration to humans
Type: in vivo, human
condition_description: plasma; human, single oral dose 50 mg (0.7 mg/kg body wt); read-out: AUC0-24
quantity_name: AUC(0-t) (ng·h/mL)
Could you give me the number in ng·h/mL? Just the number is fine.

For O=C(O)Cc1ccccc1Nc1cccc(Cl)c1 [23CPPA] the molecule record lists AUC(0-t) as 4480

* * *

protocol_description: Brain and plasma levels of 23CPPA following oral administration in rats (HPLC/MS/MS)
Assay type: in vivo
condition_description: brain, rat, gavage 15 mg/kg sodium salt, 1 hour after dose, read-out: Brain concentration
quantity_name: concentration at 1 h (µM)
Unit µM implied. Number only.

Form field concentration at 1 h, entry O=C(O)Cc1ccccc1Nc1cccc(Cl)c1 : 76

* * *

protocol_description: Plasma levels of 23CPPA after oral administration to humans
Type: in vivo, human
condition_description: plasma; human, single oral dose 50 mg (0.7 mg/kg body wt); read-out: T1/2 (converted)
quantity_name: half-life (h)
Numeric answer only, unit h assumed.

The compound O=C(O)Cc1ccccc1Nc1cccc(Cl)c1 showed half-life equal to 1.55
